Molecular target: T1, hiR2-FL-W526A-T7 (human, UniProt Q6PJF5 1-856)
T1 sequence: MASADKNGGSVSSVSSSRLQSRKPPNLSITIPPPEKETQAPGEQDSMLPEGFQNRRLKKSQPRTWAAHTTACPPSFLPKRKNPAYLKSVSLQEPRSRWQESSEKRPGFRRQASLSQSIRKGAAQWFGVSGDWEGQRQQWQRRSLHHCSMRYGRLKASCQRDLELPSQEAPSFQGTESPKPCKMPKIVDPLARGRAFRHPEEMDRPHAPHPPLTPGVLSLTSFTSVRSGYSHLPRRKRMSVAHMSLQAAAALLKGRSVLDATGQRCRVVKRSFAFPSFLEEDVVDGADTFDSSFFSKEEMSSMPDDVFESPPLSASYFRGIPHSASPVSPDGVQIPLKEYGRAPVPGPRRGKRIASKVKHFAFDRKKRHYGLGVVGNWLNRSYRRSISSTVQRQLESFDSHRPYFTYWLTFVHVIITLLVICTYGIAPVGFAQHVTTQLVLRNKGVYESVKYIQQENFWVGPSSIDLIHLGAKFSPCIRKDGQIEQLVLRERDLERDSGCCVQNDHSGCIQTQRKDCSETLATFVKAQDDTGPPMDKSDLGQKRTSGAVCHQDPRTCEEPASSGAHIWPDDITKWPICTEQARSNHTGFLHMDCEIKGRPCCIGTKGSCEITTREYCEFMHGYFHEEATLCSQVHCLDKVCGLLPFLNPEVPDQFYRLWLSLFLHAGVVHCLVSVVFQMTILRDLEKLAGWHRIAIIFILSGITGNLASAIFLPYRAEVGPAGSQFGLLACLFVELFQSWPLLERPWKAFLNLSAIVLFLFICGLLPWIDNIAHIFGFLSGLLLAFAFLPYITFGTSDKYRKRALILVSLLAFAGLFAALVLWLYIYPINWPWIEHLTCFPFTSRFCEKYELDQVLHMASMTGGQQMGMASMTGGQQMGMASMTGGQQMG
Assay: FACS on MEF-DKO cells expressing the variant, 3 µg/ml antibody
Reported loss of binding vs wild type by item:

Below: 3 binders and their reported loss of binding vs wild type.
>>> measurement("antibody 44 (antibody, V domains shown, mouse IgG, kappa light chain; also called clone #44; purified antibody 44) VH: QVTLKESGPGILQPSQTLSLTCSFSGFSLSTFGMGVGWIRQPSEKGLEWLAHIWWDDDKYYNPALKSRLTISKDTSKNQIFLKITNVDTAETATYYCSRIGNYGSNYWYFDVWGTGTTVTVSS VL: QIVLTQSPAVMSASPGEKVTMTCTASSSVYYMYWYQQTPGSSPRLLIYDTSNLASGVPVRFSGSGSGTSYSLTISRMEAEDAATYYCQQWNTYPLTFGAGTKLELK")
"≥ 30%"
>>> measurement("antibody 5 (antibody, V domains shown, mouse IgG, kappa light chain; also called clone #5; purified antibody 5) VH: QVTLKESGPGILQPSQTLSLTCSFSGFSLSTFGMGVGWIRQPSGKGLEWLAHIWWDDEKYYNSALKSRLTISKATSKNQAFLKIANVDTADTATYYCARISNYGSNYWYFNVWGTGTTVTVSS VL: QVVLTQSPALMSASPGEKVTMTCSAGSSVSCMYWYQQKPGSSPRVLIYDTSNLASGVPARFTGSGSGTSYSLTISRMEAEDAASYYCQQWNSYPLTFGAGTKLELK")
"≥ 60%"
>>> measurement("antibody 3 (antibody, V domains shown, mouse IgG, kappa light chain; also called clone #3; purified antibody 3) VH: QVTLKESGPGILQPSQTLSLTCSFSGFSLTTFAMGIGWVRQPSGKGLEWLAHIWWDGEKYNNPVLKSRLTISKDTSKNQVFLRIANVDTPDTATYYCARISSIYYIIDNWGQGTSVTVSS VL: DIVLTQSPATLSVTPGHSVSLSCRASQSISNNLHWYQKKSHESPRLLIKYVSQSISGIPSRFSGSGSGTDFTLSINSVETEDFGMYFCQQSYNWPLTFGAGTKLELK")
"≥ 30%"

Which measured loss of binding vs wild type value corresponds to antibody 34 (antibody, V domains shown, mouse IgG, kappa light chain; also called clone #34; purified antibody 34) VH: QVTLKESGPGILQPSQTLSLTCSFSGFSLSTFSLGVGWIRQSSGKGLEWLAHIWWDDEKYYNPALKSRLTISKDTSKNQVFLKIANVDAADTATYYCARAYYSKSYYALDYWGQGTSVTVSS VL: DIQMTQSPSSLSASLGERVSLTCRASQEISGYLSWLQQKPDGTIKRLIYAASTLDSGVPKRFSGSRSGSDYSLAISSLESEDFADYYCLQYANFPFTFGSGTKLEIK ?
≥ 60%

Which measured loss of binding vs wild type value corresponds to antibody 42 (antibody, V domains shown, mouse IgG, kappa light chain; also called clone #42; purified antibody 42) VH: QVTLKESGPGILQPSQTLSLTCSLSGFSLSTFGRGVGWIRQPSGKGLEWLAHIWWDDEKYYNPALKSRLTISKDTSKNQVFLRIANVDTADTATYYCARIQNYGSNYWYFDVWGTGTTVTVSS VL: LIVLTQSPAIMSASPGEKVTMTCGATSRISYMFWYQQKPGSSPRVLIYDTSNLASGVPVRFSGSGSGTSYSLTISRVEAEDVATYYCQQWNSYPLTFGAGTKLELK ?
≥ 30%

The reported measurements were obtained from patent US20240287172A1.
